Listing of entries alongside the reported growth.
Test system: TK-10 renal
assay.summary: NCI-60 one-dose screen, 48 h (100 = growth as untreated, 0 = no growth, -100 = all killed)
condition.details: 10 µM
The panel holds about 83,000 compounds, 20% with a hit somewhere; the sample as a whole holds those more often.
metric.name: growth (%)

>>> measured_value("Cc1noc2c(Cc3ccc([N+](=O)[O-])cc3)nn(CC(=O)N/N=C/c3ccc(Cl)cc3)c(=O)c12")
71.9
>>> measured_value("Cc1cc(C)nc(/N=C(\\N)Nc2ccc(S(=O)(=O)Nc3nc(C)cc(C)n3)cc2)n1")
105
>>> measured_value("Cc1cc(C)nc(SCC(=O)Nc2ccc(S(N)(=O)=O)cc2)n1")
102
>>> measured_value("CCOc1ccc(Nc2nc3ccccc3nc2Nc2ccc(OCC)cc2)cc1")
72
>>> measured_value("COc1cc2c3c(n(CCCNCCO)c(=O)c2cc1OC)-c1nc2c(cc1C3=O)OCO2")
85.5
>>> measured_value("CN(C)c1ccc(/C=C/C(=O)c2ccc(NC(=O)CN3C(=O)NC(C)(c4ccccc4)C3=O)cc2)cc1 (stereo not given)")
97.3
>>> measured_value("CC(=O)Oc1ccccc1C(=O)Oc1ccc(C(=O)/C=C/c2ccncc2)cc1")
91.6
>>> measured_value("COc1ccc(/C(C)=N/N=C2C(=O)N(C)c3ccc(Br)cc32)cc1S(N)(=O)=O")
105
>>> measured_value("O=C1Nc2cc(-c3ccc(NC(=O)c4cccs4)cc3)ccc2/C1=C/c1ccc[nH]1")
112
>>> measured_value("COC(=O)C(Cc1ccc(O)c(O)c1)NC(=O)C(CSC/C=C(\\C)CCCC(C)CCCC(C)CCCC(C)C)NC(C)=O (stereo not given)")
45.3
>>> measured_value("Cc1noc2c(Cc3ccccc3)nn(CC(=O)N/N=C/c3ccc(Br)cc3)c(=O)c12")
17.8
>>> measured_value("CONC[C@]1(C)C=C2C(=O)[C@](C)(O)C3(CC3)C(C)=C2[C@H]1O")
7.09
>>> measured_value("CSc1nc(-c2cccc(C)c2)c2cc(-c3ccccc3)n(C)c2n1")
58.1
>>> measured_value("Nc1cc(-c2cccc(C(=O)NCc3ccc4c(c3)OCO4)c2)ccn1")
103
>>> measured_value("COc1ccc(C(=O)CSc2nnc(-c3c[nH]c4ccccc34)n2-c2ccccc2)cc1")
63.9
>>> measured_value("C#Cc1ccc(S(=O)(=O)Nc2cccc(-c3csc(NC(C)=O)n3)c2)cc1")
81.7
>>> measured_value("O=C(Nc1ccc(OCc2ccccc2)cc1)Nc1ccc(Cl)c(C(F)(F)F)c1")
21
>>> measured_value("O=C(CNc1nc(-c2ccccc2)cs1)Nc1ccc(Cl)cc1")
-93.9
>>> measured_value("COc1ccc(N2N=C(c3ccc4c(c3)OCCO4)CC2c2cccc(NC(=O)CCCNS(=O)(=O)c3ccc(F)cc3)c2)cc1 (stereo not given)")
78.2
>>> measured_value("COc1cccc(COc2ccc(/C=C3\\Oc4cc(O)ccc4C3=O)cc2)c1")
2.68

====

Tested on: HCT-116 colon
assay.summary: NCI-60 one-dose screen, 48 h (100 = growth as untreated, 0 = no growth, -100 = all killed)
condition.details: 10 µM
About 83,000 compounds went through this panel and 20% of them were active in at least one assay; those are over-represented in the sample as a whole.
metric.name: growth (%)

>>> measured_value("COc1ccc(C=CC(=O)c2ccc(-n3c(C)nc4c(cnn4-c4ccccc4)c3=O)cc2)cc1")
9.71
>>> measured_value("O=C1Nc2ccc(F)cc2/C1=C/c1cccc(OCc2ccccn2)c1")
1.75
>>> measured_value("Cc1ccc(C(=O)CSc2nnc(-c3c[nH]c4ccccc34)n2-c2ccccc2)cc1")
7.68
>>> measured_value("CCOC(=O)CNC(=O)CN(Cc1ccccc1)C(=O)[C@@]1(C)CCC[C@]2(C)[C@H]3CC4C(C(C)C)=C[C@]3(CC[C@H]21)[C@@H]1C(=O)CCC(=O)[C@H]41")
36.5

====

System: MDA-MB-468 breast
assay.summary: NCI-60 one-dose screen, 48 h
condition.details: 10 µM
About 83,000 compounds went through this panel and 20% of them were active in at least one assay; those are over-represented in the sample as a whole. Calls of active or inactive are those of the source. How the source made its calls: active means growth percent below 10; inactive means the rest.
Labels: active, inactive

>>> class_name("Cc1ccc2nc(-c3ccc(-c4nnc(SCC(=O)Nc5ccc(Cl)cc5)o4)cc3)[nH]c2c1")
"inactive"
>>> class_name("COc1ccc2[nH]c(O)c(N=NC(=O)c3cc(-c4ccc(C)cc4)nc4ccccc34)c2c1")
"inactive"
>>> class_name("CCN1CCN(c2ccc(NC(=O)Nc3ccc(-c4cc(C(=O)NC)c5ncccc5n4)cc3)cc2C(F)(F)F)CC1")
"active"
>>> class_name("COc1ccc(CN2[C@H](C(=O)NCc3ccc(C(=O)NO)cc3)Cc3c([nH]c4ccccc34)[C@H]2C2CC2)cc1")
"active"
>>> class_name("N#Cc1c(-c2ccc(F)cc2)nc(SCc2ccc([N+](=O)[O-])cc2)nc1N1CCOCC1")
"inactive"
>>> class_name("CN1CCO/C1=C(/NC(=O)c1ccc(Cl)cc1)[P+](c1ccccc1)(c1ccccc1)c1ccccc1")
"active"
>>> class_name("COc1ccc(/C=C/C(=O)c2ccc(S(=O)(=O)NCCNc3nc(Nc4ccc(F)cc4)nc(N(C)C)n3)cc2)cc1")
"active"
>>> class_name("CC(C)c1ccc(C(=O)Nc2sc3c(c2C(N)=O)CCC(=O)C3=O)cc1")
"inactive"
>>> class_name("COc1ccc(CCN2C(=O)/C(=C/c3csc(C#N)n3)SC2=S)cc1")
"active"
>>> class_name("NS(=O)(=O)c1ccc(NC(=O)CSc2ccc(-c3ccc(Cl)cc3)nn2)c(Br)c1")
"active"
>>> class_name("COc1ccc2nc(Cl)c(-c3cc(-c4ccccc4)nc(N)n3)cc2c1")
"inactive"
>>> class_name("CN(C)CCNC(=O)OCCCCOc1cc(O)c2c(=O)cc(-c3ccccc3)oc2c1")
"active"
>>> class_name("O=C1Nc2cc(Cl)ccc2/C1=C/c1cccc(OCc2ccccc2)c1")
"inactive"
>>> class_name("COC(=O)C(Cc1ccc(O)c(O)c1)NC(=O)C(CSC/C=C(\\C)CCCC(C)CCCC(C)CCCC(C)C)NC(C)=O (stereo not drawn)")
"active"
>>> class_name("CC1=C2C(=C[C@@](C)(COCOCCCl)[C@@H]2O)C(=O)[C@](C)(O)C12CC2")
"active"
>>> class_name("COc1ccc(N(C)c2cc(C#N)nc3ccccc23)cc1N")
"active"
>>> class_name("COc1ccc(/C=C/C(=O)c2ccc(N3CCN(C)CC3)cc2)c(C(F)(F)F)c1")
"active"
>>> class_name("C#CCNC(=O)CCC(=O)OC[C@]12CC[C@@H](C(=C)C)[C@@H]1C1CC[C@@H]3[C@@]4(C)CCCNC(C)(C)[C@@H]4CC[C@@]3(C)[C@]1(C)CC2 (stereo partly drawn)")
"active"

====

# reported growth; entries follow
Test system: OVCAR-4 ovarian
assay.summary: NCI-60 one-dose screen, 48 h (100 = growth as untreated, 0 = no growth, -100 = all killed)
condition.details: 10 µM
The panel holds about 83,000 compounds, 20% with a hit somewhere; the sample as a whole holds those more often. The source made the active and inactive calls. How the source made its calls: active means growth percent below 10; inactive means the rest.
metric.name: growth

>>> measured_value("COc1ccc2nc(Cl)c(-c3cc(-c4ccccc4)nc(=S)[nH]3)cc2c1")
"90.1% (inactive)"
>>> measured_value("O=C(Nc1cccc(C(F)(F)F)c1)c1cncc(C#Cc2cnc3ccc(N4CCOCC4)nn23)c1")
"12.7% (inactive)"
>>> measured_value("Cc1ccc(NCC(=O)Nn2c(COc3ccccc3)nc3ccccc3c2=O)cc1")
"25.4% (inactive)"
>>> measured_value("C=C(C)[C@@H]1CC[C@]2(COP(=O)(OCC)OCC)CC[C@]3(C)[C@H](CC[C@@H]4[C@@](C)(CCCN)[C@H](C(=C)C)CC[C@]43C)[C@@H]12")
"23.2% (inactive)"

====

Test system: HT29 colon
assay.summary: NCI-60 one-dose screen, 48 h (100 = growth as untreated, 0 = no growth, -100 = all killed)
condition.details: 10 µM
This is part of a sample that, as a whole, favours compounds with a hit. Of some 83,000 tested, about 20% had one in any assay.
metric.name: growth (%)

>>> measured_value("CC1(C)[C@@H](NCO)CC[C@]2(C)[C@H]3C(=O)C=C4[C@@H]5C[C@](C)(CO)CC[C@]5(C)CC[C@@]4(C)[C@]3(C)CC[C@@H]12")
13.9
>>> measured_value("CC(=O)Nc1ccc(-n2cnc3cc(-c4ccc(O)cc4)ccc32)cc1F")
-9.81
>>> measured_value("CN1CCN(c2ccc(C(=O)/C=C/c3ccc(C#N)cc3)cc2)CC1")
35.4
>>> measured_value("O=C(NC(=S)N1CCN(c2ncnc3c2cnn3-c2ccccc2)CC1)c1ccc(Cl)cc1")
79.1
>>> measured_value("CN1CCN(c2ccc(C(=O)/C=C/c3ccc(OC(F)F)cc3)cc2)CC1")
13.4
>>> measured_value("N#Cc1c(-c2ccc(Cl)cc2)cc(-c2ccccc2)nc1OCc1ccccc1")
65
>>> measured_value("O=C(CS(=O)(=O)c1oc(-c2ccc(Cl)cc2)nc1S(=O)(=O)c1ccccc1)N1CCCC1")
-40.6
>>> measured_value("O=S(=O)(Nc1ncccn1)c1ccc(-n2c(-c3ccccc3)nc(-c3ccccc3)c2-c2ccccc2)cc1")
105
>>> measured_value("COc1ccc2[nH]c(=O)c(CSc3ccc(Nc4nccc(-c5ccc(Cl)cc5)n4)cc3)cc2c1")
104
